Provenance of the data: patent US11078170B2

Tested on: HBV viral production from HepAD38 cells
Assay: Activity of test compounds on viral production from HepAD38 cells (viral load by qPCR of HBV core sequence in supernatant)
Format: cell-based
Details: Hepatitis B virus, 120 h, 5 days incubation, HBV DNA in supernatant by qPCR, top concentration 10 μM, read-out: Viral Load EC50 Activity range
EC50: recorded values

Reference set, count: 8
                                   compound                              test_target  test_readout           result
0  CN1[C@H](C(=O)Nc2ccc(F)c(Cl)c2)C[C@H](c2ncc(-c3ccnn3C)s2)NS1(=O)=O [HBV-CSU-281-ISO-I]  HBV viral production from HepAD38 cells          EC50        < 1000 nM
1  COC(C)(C)CCN1[C@H](C(=O)Nc2ccc(F)c(Cl)c2)C[C@H](c2nccs2)NS1(=O)=O [HBV-CSU-083-ISO-II]  HBV viral production from HepAD38 cells          EC50        > 5000 nM
2  CN1[C@@H](C(=O)Nc2ccc(F)c(Cl)c2)C[C@@H](c2ccc(-c3ncnn3C)s2)NS1(=O)=O [HBV-CSU-323-ISO-II]  HBV viral production from HepAD38 cells          EC50  1000 to 5000 nM
3  CN1[C@@H](C(=O)Nc2ccc(F)c(Cl)c2)C[C@@H](c2ccc(-c3cn(C)cn3)s2)NS1(=O)=O [HBV-CSU-266-ISO-II]  HBV viral production from HepAD38 cells          EC50  1000 to 5000 nM
4  CN1C(C(=O)Nc2cccc(Br)c2)CC(c2cccs2)NS1(=O)=O (stereo not drawn) [HBV-CSU-017]  HBV viral production from HepAD38 cells          EC50        < 1000 nM
5  Cc1cnc(C2CC(C(=O)Nc3ccc(F)c(Cl)c3)N(C)S(=O)(=O)N2)s1 (stereo not drawn)  HBV viral production from HepAD38 cells          EC50        < 1000 nM
6  O=C(Nc1ccc(F)c(Cl)c1)[C@H]1C[C@@H](c2nccs2)NS(=O)(=O)N1CCCO [HBV-CSU-078-ISO-II]  HBV viral production from HepAD38 cells          EC50        > 5000 nM
7  O=C(Nc1ccc(F)c(Cl)c1)[C@@H]1C[C@H](c2nccs2)NS(=O)(=O)N1CCOCc1ccccc1 [HBV-CSU-095-ISO-II]  HBV viral production from HepAD38 cells          EC50  1000 to 5000 nM

Challenge: Need EC50, item CN1[C@H](C(=O)Nc2ccc(F)c(Cl)c2)C[C@H](c2cc(-c3cccs3)cs2)NS1(=O)=O [HBV-CSU-170-ISO-I]
Response given: < 1000 nM

Challenge: Need EC50, item CN1[C@H](C(=O)Nc2cc(F)c(F)c(Br)c2)C[C@H](c2cccs2)NS1(=O)=O [HBV-CSU-049-ISO-I]
Response given: < 1000 nM

Challenge: Need EC50, item N#CCN1[C@@H](C(=O)Nc2ccc(F)c(Cl)c2)C[C@@H](c2nccs2)NS1(=O)=O [HBV-CSU-093-ISO-II]
Response given: > 5000 nM

Challenge: Need EC50, item CN1[C@H](C(=O)Nc2ccc(F)c(Br)c2)C[C@H](c2ccc(F)cc2)NS1(=O)=O [HBV-CSU-211-ISO-I]
Response given: < 1000 nM

Challenge: Need EC50, item CN1[C@@H](C(=O)Nc2ccc(F)c(Cl)c2)C[C@@H](c2ccc(-c3ccnn3C)s2)NS1(=O)=O [HBV-CSU-271-ISO-II]
Response given: 1000 to 5000 nM

Challenge: Need EC50, item CN1[C@@H](C(=O)Nc2ccc(F)c(Br)c2)C[C@@H](c2nccs2)NS1(=O)=O [HBV-CSU-060-ISO-I]
Response given: > 5000 nM

Challenge: Need EC50, item CN1C(C(=O)Nc2ccc(F)c(Cl)c2)CC(c2cc(Cl)c(O)c(Cl)c2)NS1(=O)=O (stereo not drawn) [HBV-CSU-260]
Response given: < 1000 nM
